Biological target: Multidrug efflux pump subunit AcrB (Escherichia coli (strain K12)) (UniProt P31224)
Sequence (whole entry): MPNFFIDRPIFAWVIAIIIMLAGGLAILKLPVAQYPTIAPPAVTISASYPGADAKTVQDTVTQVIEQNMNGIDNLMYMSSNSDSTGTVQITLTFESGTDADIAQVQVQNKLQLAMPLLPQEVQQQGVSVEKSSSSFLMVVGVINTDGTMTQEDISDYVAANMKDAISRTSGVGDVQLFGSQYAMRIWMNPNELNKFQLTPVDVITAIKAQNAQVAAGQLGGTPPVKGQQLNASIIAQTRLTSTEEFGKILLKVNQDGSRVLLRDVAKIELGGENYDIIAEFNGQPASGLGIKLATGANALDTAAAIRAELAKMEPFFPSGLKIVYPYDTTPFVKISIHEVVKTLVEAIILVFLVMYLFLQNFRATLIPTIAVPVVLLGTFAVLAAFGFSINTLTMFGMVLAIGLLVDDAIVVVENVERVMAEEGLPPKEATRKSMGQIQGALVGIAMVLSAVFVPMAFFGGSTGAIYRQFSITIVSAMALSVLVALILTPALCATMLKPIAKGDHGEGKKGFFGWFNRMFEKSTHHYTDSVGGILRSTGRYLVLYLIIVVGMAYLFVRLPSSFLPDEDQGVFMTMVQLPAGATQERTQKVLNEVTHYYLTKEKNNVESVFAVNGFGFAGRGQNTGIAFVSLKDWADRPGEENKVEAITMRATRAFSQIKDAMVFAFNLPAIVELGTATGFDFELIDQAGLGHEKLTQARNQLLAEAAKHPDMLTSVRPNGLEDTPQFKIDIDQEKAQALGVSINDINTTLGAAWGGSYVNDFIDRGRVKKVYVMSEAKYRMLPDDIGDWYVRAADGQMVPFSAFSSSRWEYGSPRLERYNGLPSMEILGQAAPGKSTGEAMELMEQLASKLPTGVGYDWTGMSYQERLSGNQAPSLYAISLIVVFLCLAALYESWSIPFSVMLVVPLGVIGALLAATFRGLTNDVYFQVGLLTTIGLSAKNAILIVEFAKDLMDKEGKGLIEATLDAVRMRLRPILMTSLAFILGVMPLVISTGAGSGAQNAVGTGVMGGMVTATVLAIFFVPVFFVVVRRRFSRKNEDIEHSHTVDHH
Assay: Inhibition of AcrB in multidrug-resistant Escherichia coli BW25113 assessed as potentiation of levofloxacin-induced antibacterial activity by measuring levofloxacin MIC at 16 ug/ml by checkerboard titration method (reference value: 0.06 ug/ml)
Settings: dose 16.0 µg/ml
parameter: MIC (µg/mL)
Report as a plain number; the unit µg/mL is understood.

Example results:
1. CC1(C)CCc2c(-c3nnco3)cc3c(OCc4ccccc4)cccc3c2O1 : 0.06
2. Cc1ccccc1COc1cccc2c3c(c(-c4nnco4)cc12)CCC(C)(C)O3 : 0.06
3. CNC(=O)c1ccc(COc2cccc3c4c(c(Cn5cnnn5)cc23)CCC(C)(C)O4)cc1 : 0.06
4. CC1(C)CCc2c(-c3nnco3)cc3c(OCc4ccc([N+](=O)[O-])cc4)cccc3c2O1 : 0.06
5. C=CC(=O)Nc1ccc(COc2cccc3c4c(c(C(=O)N5CCOCC5)cc23)CCC(C)(C)O4)cc1 : 0.06

Record summary for C[C@@H](Cc1ccc(O)c(O)c1)[C@@H](C)Cc1ccc(O)c(O)c1 : reported MIC = 0.06

Record summary for CC1CN(C(=O)c2cc3c(OCc4c(Cl)cccc4Cl)cccc3c3c2CCC(C)(C)O3)CC(C)O1 (centres undefined) : reported MIC = 0.03

Record summary for COc1cccc(COc2cccc3c4c(c(-c5nnco5)cc23)CCC(C)(C)O4)c1 : reported MIC = 0.06

Record summary for CC1(C)CCc2c(C(=O)N3CCOCC3)cc3c(OCc4ccccc4)cccc3c2O1 : reported MIC = 0.03

Value source: ChEMBL document CHEMBL4732114
